Source of measurements: ChEMBL document CHEMBL1130121

experimental target: D(4) dopamine receptor (Homo sapiens)
Sequence (P21917 whole entry): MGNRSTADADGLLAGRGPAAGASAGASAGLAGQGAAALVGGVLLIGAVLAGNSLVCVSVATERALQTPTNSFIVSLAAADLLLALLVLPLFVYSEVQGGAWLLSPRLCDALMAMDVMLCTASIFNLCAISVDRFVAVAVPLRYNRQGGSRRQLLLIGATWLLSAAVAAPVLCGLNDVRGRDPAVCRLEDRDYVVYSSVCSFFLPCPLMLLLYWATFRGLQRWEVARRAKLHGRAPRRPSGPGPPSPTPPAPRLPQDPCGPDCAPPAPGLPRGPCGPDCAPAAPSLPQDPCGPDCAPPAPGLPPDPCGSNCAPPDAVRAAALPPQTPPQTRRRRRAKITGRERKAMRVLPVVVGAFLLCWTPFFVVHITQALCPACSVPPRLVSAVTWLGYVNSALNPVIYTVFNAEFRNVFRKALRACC
pKi: −log10 of the molar value.
endpoint: pKi

sample smiles: Cc1ccc2c3c(c(=O)oc2c1)CN(Cc1ccc(Cl)cc1)CC3
pKi: 7.96
--
sample smiles: COc1ccc2c3c(c(=O)oc2c1OC)CN(Cc1ccccc1)CC3
pKi: 7.80
--
sample smiles: Cc1cc(O)c2c3c(c(=O)oc2c1)CN(Cc1ccccc1)CC3
pKi: 6.84

P = COc1ccc2c3c(c(=O)oc2c1)CN(Cc1cccc(Cl)c1)CC3
Q = COc1ccc2c3c(c(=O)oc2c1)CN(CCc1ccccc1)CC3
Which item exceeds the other in pKi, P or Q ? Use the label to indicate which entry you chose.
Q
